Tested on: Hh signaling
Experiment: luciferase-based reporter assay of Hh signaling in C3H10T1/2 cells
Type: cell-based
Details: Hh protein (10 nM) or Hh-Ag 1.2 (200 nM)
quantity-name: inhibition of Hh protein-activated versus agonist-activated cells

[
  {
    "structure-smiles": "CC1=C2C[C@H]3[C@@H](CC=C4CC(=O)CC[C@@]43C)[C@@H]2CC[C@]12O[C@@H]1C[C@H](C)CN(CCNC(=O)CCCCCNC(=O)CCc3ccccc3)[C@H]1[C@H]2C",
    "test-target": "Hh signaling",
    "readout-value": "Identical results"
  },
  {
    "structure-smiles": "CC1=C2C(=O)[C@H]3[C@@H](CC=C4C[C@@H](O)CC[C@@]43C)[C@@H]2CC[C@]12O[C@@H]1C[C@H](C)CN[C@H]1[C@H]2C",
    "test-target": "Hh signaling",
    "readout-value": "Identical results"
  }
]

====

Molecular target: murine Smo (Mus musculus, UniProt P56726)
Sequence (P56726 33-793): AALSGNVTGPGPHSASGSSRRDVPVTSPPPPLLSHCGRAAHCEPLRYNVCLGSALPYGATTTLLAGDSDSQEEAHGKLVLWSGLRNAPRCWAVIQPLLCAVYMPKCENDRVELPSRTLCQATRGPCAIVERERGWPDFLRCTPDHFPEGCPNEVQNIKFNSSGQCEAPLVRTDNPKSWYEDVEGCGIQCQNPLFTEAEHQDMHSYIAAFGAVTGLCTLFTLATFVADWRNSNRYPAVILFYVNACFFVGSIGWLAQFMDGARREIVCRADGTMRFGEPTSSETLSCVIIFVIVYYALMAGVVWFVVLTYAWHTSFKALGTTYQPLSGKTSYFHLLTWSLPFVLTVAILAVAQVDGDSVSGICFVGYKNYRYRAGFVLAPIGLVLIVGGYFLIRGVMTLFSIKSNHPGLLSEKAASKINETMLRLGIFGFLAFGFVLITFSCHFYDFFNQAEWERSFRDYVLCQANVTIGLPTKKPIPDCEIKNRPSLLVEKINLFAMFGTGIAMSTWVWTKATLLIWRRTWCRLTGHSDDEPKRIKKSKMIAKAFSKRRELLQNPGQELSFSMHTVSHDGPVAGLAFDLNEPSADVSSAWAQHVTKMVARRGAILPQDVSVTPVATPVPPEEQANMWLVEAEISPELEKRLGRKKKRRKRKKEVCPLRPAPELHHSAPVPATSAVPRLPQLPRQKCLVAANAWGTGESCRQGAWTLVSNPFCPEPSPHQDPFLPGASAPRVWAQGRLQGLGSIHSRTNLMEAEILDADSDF
Assay: filtration membrane-binding assay, Smo-containing membranes from 293T cells
pKi: −log10 of the molar value.
quantity-name: pKi

[
  {
    "compound": "CC1=C2C[C@H]3[C@@H](CC=C4CC(=O)CC[C@@]43C)[C@@H]2CC[C@]12O[C@@H]1C[C@H](C)CN(CCNC(=O)CCCCCNC(=O)CCc3ccccc3)[C@H]1[C@H]2C [KAAD-cyclopamine]",
    "quantity-name": "pKi",
    "readout-value": 8.24
  }
]

====

Molecular target: murine Smo W539L (Smo^act) (Mus musculus, UniProt P56726, W539L)
Sequence (P56726 33-793 W539L): as the sequence (P56726 33-793) above, with W507L counted along it
Assay: filtration membrane-binding assay, Smo^act-containing membranes
quantity-name: Ki

[
  {
    "structure-smiles": "CC1=C2C[C@H]3[C@@H](CC=C4CC(=O)CC[C@@]43C)[C@@H]2CC[C@]12O[C@@H]1C[C@H](C)CN(CCNC(=O)CCCCCNC(=O)CCc3ccccc3)[C@H]1[C@H]2C",
    "test-target": "murine Smo W539L (Smo^act) (Mus musculus, UniProt P56726, W539L)",
    "readout-value": "38.3 nM"
  }
]

Data origin: paper PMC137065
